- Protocol Details: Inhibition of CYP450 (unknown origin)
- Format: ADME, Homo sapiens
pIC50: −log10 of the molar value.
Property Label: pIC50

>>> df
                                        smi  reported_value
0  CC[C@]1(C)C[C@@H](OC(=O)CSc2nnc(N)[nH]2)[C@]2(C)[C@H](C)CC[C@]3(CCC(=O)[C@H]32)[C@@H](C)[C@@H]1O            6.92

---

- Tested on: Staphylococcus aureus
- Protocol Details: Bactericidal activity against Staphylococcus aureus ATCC 29213 preincubated 16 to 20 hrs followed by subculturing and measured after over night
- Assay type: functional

Compound	Readout Units	MBC
C=C[C@]1(C)C[C@@H](OC(=O)CSc2ccccc2NC(=O)Cn2cc(CN3CCCCC3)nn2)[C@]2(C)[C@H](C)CC[C@]3(CCC(=O)[C@H]32)[C@@H](C)[C@@H]1O	µg/mL	0.5
C=C[C@]1(C)C[C@@H](OC(=O)CSc2ccccc2NC(=O)Cn2cc(CN3CCN(c4cccc(F)c4)CC3)nn2)[C@]2(C)[C@H](C)CC[C@]3(CCC(=O)[C@H]32)[C@@H](C)[C@@H]1O	µg/mL	0.5
C=C[C@]1(C)C[C@@H](OC(=O)CSc2ccccc2NC(=O)Cn2cc(CN3CCN(c4ccc(C)cc4)CC3)nn2)[C@]2(C)[C@H](C)CC[C@]3(CCC(=O)[C@H]32)[C@@H](C)[C@@H]1O	µg/mL	0.5
C=C[C@]1(C)C[C@@H](OC(=O)CSc2ccccc2NC(=O)Cn2cc(CN3CCCC(CO)C3)nn2)[C@]2(C)[C@H](C)CC[C@]3(CCC(=O)[C@H]32)[C@@H](C)[C@@H]1O (stereo not given in full)	µg/mL	0.5
C=C[C@]1(C)C[C@@H](OC(=O)CSc2ccccc2NC(=O)Cn2cc(CN3CCN(c4ccccc4[N+](=O)[O-])CC3)nn2)[C@]2(C)[C@H](C)CC[C@]3(CCC(=O)[C@H]32)[C@@H](C)[C@@H]1O	µg/mL	0.25
C=C[C@]1(C)C[C@@H](OC(=O)CO)[C@]2(C)[C@H](C)CC[C@]3(CCC(=O)[C@H]32)[C@@H](C)[C@@H]1O	µg/mL	2
C=C[C@]1(C)C[C@@H](OC(=O)CSc2ccccc2NC(=O)Cn2cc(CN3CCN(c4ccccc4)CC3)nn2)[C@]2(C)[C@H](C)CC[C@]3(CCC(=O)[C@H]32)[C@@H](C)[C@@H]1O	µg/mL	0.5
C=C[C@]1(C)C[C@@H](OC(=O)CSc2ccccc2NC(=O)Cn2cc(CN3CCN(C)CC3)nn2)[C@]2(C)[C@H](C)CC[C@]3(CCC(=O)[C@H]32)[C@@H](C)[C@@H]1O	µg/mL	0.5
C=C[C@]1(C)C[C@@H](OC(=O)CSc2ccccc2NC(=O)Cn2cc(CN3CCN(c4cccc(O)c4)CC3)nn2)[C@]2(C)[C@H](C)CC[C@]3(CCC(=O)[C@H]32)[C@@H](C)[C@@H]1O	µg/mL	0.5
C=C[C@]1(C)C[C@@H](OC(=O)CSCCN(CC)CC)[C@]2(C)[C@H](C)CC[C@]3(CCC(=O)[C@H]32)[C@@H](C)[C@@H]1O	µg/mL	1
